- Tested on: MUSK;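 further: KINOMEscan kinase panel screen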
- condition-set: concentration: 1 μM, replicates: in singlicate; n = 1
result-type: %Inh (%)

>  <compound>
CNc1nccc(-c2c(-c3ccc(F)cc3)ncn2C2CCN(C)CC2)n1

>  <result-type>
%Inh

>  <numeric-result>
0

$$$$
>  <compound>
CSc1nn2c(=O)cc(N3CCOCC3)nc2n1Cc1cccc(Cl)c1Cl

>  <result-type>
%Inh

>  <numeric-result>
16

$$$$
>  <compound>
Cl.O=S(=O)(c1cccc(F)c1)c1ccc(Nc2ncnc3cc(Br)sc23)cc1Cl

>  <result-type>
%Inh

>  <numeric-result>
8

$$$$
>  <compound>
Nc1nc(-c2ccc3c(N)n[nH]c3c2)cc(N2CCCCC2)n1

>  <result-type>
%Inh

>  <numeric-result>
3

$$$$
>  <compound>
Nc1nccc2scc(-c3ccc4c(c3)CCN4C(=O)Cc3cc(F)ccc3F)c12

>  <result-type>
%Inh

>  <numeric-result>
10

$$$$
>  <compound>
FC(F)(F)c1ccc(-c2cc(-c3c[nH]nc3-c3ccccn3)ccn2)cc1

>  <result-type>
%Inh

>  <numeric-result>
14

$$$$
>  <compound>
Nc1nc(-c2ccccn2)c(-c2ccnc3ccccc23)s1

>  <result-type>
%Inh

>  <numeric-result>
0

$$$$
>  <compound>
Clc1cccc(-c2nc(Nc3ccncc3)c3ccccc3n2)c1

>  <result-type>
%Inh

>  <numeric-result>
0

$$$$
>  <compound>
CN1c2ccc(-c3ccc(C(=O)NCCO)cc3)cc2-c2[nH]ncc2S1(=O)=O

>  <result-type>
%Inh

>  <numeric-result>
0

$$$$
>  <compound>
Cn1cc(-c2ccc3c(c2)CCN3C(=O)Cc2cccc(C(F)(F)F)c2)c2c(N)ncnc21

>  <result-type>
%Inh

>  <numeric-result>
6

$$$$
>  <compound>
CNc1nccc(-c2c(-c3ccc(F)cc3)ncn2CCCN2CCOCC2)n1

>  <result-type>
%Inh

>  <numeric-result>
0

$$$$
>  <compound>
Clc1ccc(-c2cc(-c3c[nH]nc3-c3ccccn3)ccn2)cc1

>  <result-type>
%Inh

>  <numeric-result>
12

$$$$
>  <compound>
Cc1cc(N2CCC(NS(=O)(=O)c3ccc(F)cc3)CC2)nc(Nc2cccc(C#N)c2)n1.O=C(O)C(F)(F)F

>  <result-type>
%Inh

>  <numeric-result>
8

$$$$
>  <compound>
CC(C)(C)c1ccc(-n2cnc3c(N)ncnc32)cc1

>  <result-type>
%Inh

>  <numeric-result>
0

$$$$
>  <compound>
Fc1cccc(COc2ccc(Nc3ncnc4sc(-c5ccc[nH]5)cc34)cc2Cl)c1

>  <result-type>
%Inh

>  <numeric-result>
0

$$$$
>  <compound>
Cl.Fc1ccccc1COc1ccc(Nc2ncnc3ccc(-c4nnc(C(F)(F)F)o4)cc23)cc1Cl

>  <result-type>
%Inh

>  <numeric-result>
0

$$$$
>  <compound>
Cc1ccc(NC(=O)c2cccc(C#N)c2)cc1-c1ccc(C(=O)Nc2ccncc2)cc1

>  <result-type>
%Inh

>  <numeric-result>
10

$$$$
>  <compound>
COc1ccc(-c2nc3n(c2-c2ccncc2)CCC3)cc1

>  <result-type>
%Inh

>  <numeric-result>
3

$$$$
>  <compound>
CCc1nc(-c2cccc(N(C)S(=O)(=O)c3ccccc3)c2)c(-c2ccnc(Nc3ccc(N4CCN(C(C)=O)CC4)nc3)n2)s1

>  <result-type>
%Inh

>  <numeric-result>
1

$$$$
>  <compound>
Fc1cccc(COc2ccc(Nc3ncnc4cc[nH]c34)cc2Cl)c1

>  <result-type>
%Inh

>  <numeric-result>
10

$$$$
>  <compound>
Cc1cccc(-c2nc(Nc3ccc4[nH]nnc4c3)c3ccccc3n2)n1

>  <result-type>
%Inh

>  <numeric-result>
2

$$$$
>  <compound>
CC(C)(C)OC(=O)NC1CCCN(c2cc(-c3ccc4c(N)n[nH]c4c3)nc(N)n2)C1 (stereo not drawn)

>  <result-type>
%Inh

>  <numeric-result>
0

$$$$
>  <compound>
CC(C)N1CCC(n2cnc(-c3ccc(F)cc3)c2-c2ccnc(N)n2)CC1

>  <result-type>
%Inh

>  <numeric-result>
0

$$$$
>  <compound>
Fc1ccc(-c2ncn(CCCNCc3ccccc3)c2-c2ccncc2)cc1

>  <result-type>
%Inh

>  <numeric-result>
9

$$$$
>  <compound>
Cc1ccc(O)cc1Nc1cc(C(F)(F)F)nc2ccc(-c3ccncc3)cc12

>  <result-type>
%Inh

>  <numeric-result>
0

$$$$
>  <compound>
Clc1cc(Nc2ncnc3cc[nH]c23)ccc1OCc1ccccn1

>  <result-type>
%Inh

>  <numeric-result>
13

$$$$
>  <compound>
OCCOCCn1ccc2ncnc(Nc3ccc(Oc4cccc(Cl)c4)c(Cl)c3)c21

>  <result-type>
%Inh

>  <numeric-result>
0

$$$$
>  <compound>
c1ccc(-c2ccc3c(-c4ccnc(Nc5ccc6c(c5)OCCO6)n4)cnn3n2)cc1

>  <result-type>
%Inh

>  <numeric-result>
16

$$$$
>  <compound>
COc1ccc(NC(=O)Nc2ccc(C)c(-c3ccc(C(=O)Nc4ccncc4)cc3)c2)cc1

>  <result-type>
%Inh

>  <numeric-result>
0

$$$$
>  <compound>
CC(=O)Nc1n[nH]c2ncc(-c3ccccc3)cc12

>  <result-type>
%Inh

>  <numeric-result>
9

$$$$
>  <compound>
CCCc1ccc(S(=O)(=O)NC2CCN(c3ccnc(Nc4ccc(OC)cc4)n3)C2)cc1 (stereo not drawn)

>  <result-type>
%Inh

>  <numeric-result>
9

$$$$
>  <compound>
FC(F)(F)c1ccc(-c2nn3ncccc3c2-c2ccnc(Nc3cccc(C(F)(F)F)c3)n2)cc1

>  <result-type>
%Inh

>  <numeric-result>
0

$$$$
>  <compound>
Oc1ccc2ncnc(Nc3ccc(OCc4ccccc4)cc3)c2c1

>  <result-type>
%Inh

>  <numeric-result>
17

$$$$
>  <compound>
COC(=O)c1cccc(NC(=O)NCCNc2ccnc(Nc3ccc(F)cc3)n2)c1

>  <result-type>
%Inh

>  <numeric-result>
4

$$$$
>  <compound>
O=C(Nc1ccccc1F)NC1CCN(c2ccnc(Nc3ccc(F)cc3)n2)C1 (stereo not drawn)

>  <result-type>
%Inh

>  <numeric-result>
2

$$$$
>  <compound>
CSc1ccc(NC2=C(c3ccccc3Cl)C(=O)NC2=O)cc1

>  <result-type>
%Inh

>  <numeric-result>
0

$$$$
